Test system: OVCAR-3
protocolSummary: NCI tumour cell line growth inhibition, 48 h
Active and inactive are the calls of the source. Rule as the data show it: active = GI50 up to about 1.1 µM and inactive = higher.
Below: a set of entries, each annotated with reported GI50.

Look over these answered cases.
{"sampleSmiles": "O=c1c(-c2ccccc2)c2oc(c1-c1ccccc1)CS(=O)(=O)CCC2", "GI50": "22.6 µM (inactive)"}
{"sampleSmiles": "O=C(N/N=C/c1ccc(Br)cc1)N/N=C/c1ccc(Br)cc1", "GI50": "3.81 µM (inactive)"}
{"sampleSmiles": "Cc1ccc2c(c1)CC1(Cc3cc(C)ccc3C1=O)C2=O", "GI50": "> 100 µM (inactive)"}

Please examine the following record next.
The measured GI50 associated with N=c1oc2ccc(Cl)cc2cc1C(=O)NCc1ccccc1 reads > 100 µM (inactive)

====

Tested on: MOLT-4
protocolSummary: NCI tumour cell line growth inhibition, 48 h
The source made the active and inactive calls. Cut-off read from the data, not from the text of the source: active = GI50 up to about 1.1 µM and inactive = higher. Where a SMILES comes first, the peptide text is derived from it. Non-standard residues stand in square brackets, D forms with d. Residues, ends and D or L forms follow the SMILES beside them. The star is where a group is joined. ξ: configuration not given here. *: point of attachment. NMeF = CN[C@@H](Cc1ccccc1)C(=O)O; NMeN = CN[C@@H](CC(N)=O)C(=O)O; NMeV = CN[C@H](C(=O)O)C(C)C; ξNMeV = CNC(C(=O)O)C(C)C; Cbz = O=C(OCc1ccccc1)*; Boc = CC(C)(C)OC(=O)*; ξNMeA = CNC(C)C(=O)O; ξV = CC(C)C(N)C(=O)O
Use one of these outcomes when replying: label 1 (active), label 0 (inactive)

{"compound": "O=C(CNC(=O)OCc1ccccc1)Oc1ccccc1", "testedOn": "MOLT-4", "classLabel": "label 0"}

Query: recorded result category for COC(=O)C(C)N(C)C(=O)[C@H](CC(N)=O)N(C)C(=O)[C@@H]1CCCN1C(=O)[C@H](C(C)C)N(C)C(=O)C(C(C)C)N(C)C(=O)[C@H](Cc1ccccc1)N(C)C(=O)C(NC(=O)OC(C)(C)C)C(C)C (stereo partly specified) (Boc-[ξV][NMeF][ξNMeV][NMeV]P[NMeN][ξNMeA]-OMe) in this test label 0

Query: recorded result category for CCOC(=O)CCC(NC(=O)CNC(=O)CNC(=O)C(CCC(=O)OCC)NC(=O)C(CCC(=O)OCC)NC(=O)C(CCC(=O)OCC)NC(=O)OCc1ccccc1)C(=O)NC(CCC(=O)OCC)C(=O)NC(CCC(=O)OCC)C(=O)OCC (stereo unspecified) (Cbz-E(OEt)E(OEt)E(OEt)GGE(OEt)E(OEt)E(OEt)-OEt; configuration not given here) in this test label 0

====

Below: a set of entries, each annotated with reported GI50.
Test system: HL-60
protocolSummary: NCI tumour cell line growth inhibition, 48 h
The source made the active and inactive calls. Cut-off read from the data, not from the text of the source: active = GI50 up to about 1.1 µM and inactive = higher.

Look over these answered cases.
{"compound": "O=C1CCCCC2N(C(c3ccccc3)c3ccccc3)CC[C@@]12c1ccccc1.O=C1CCCC[C@H]2N(C(c3ccccc3)c3ccccc3)CC[C@@]12c1ccccc1 (some centres not stated)", "propertyName": "GI50", "testValue": "2.87 µM (inactive)"}
{"compound": "CN1CC[C@]2(C)c3c(O)cccc3CC3CCCC1C32C (some centres not stated)", "propertyName": "GI50", "testValue": "96.2 µM (inactive)"}
{"compound": "COc1ccc(-c2ccccc2)c2[nH]c3c(c12)CCNC3=O", "propertyName": "GI50", "testValue": "> 100 µM (inactive)"}
{"compound": "CCOC(=O)C1(C/C=C/CBr)CCc2ccccc2C1=O (configuration not stated)", "propertyName": "GI50", "testValue": "6.3 µM (inactive)"}
{"compound": "C=C1C(=O)C([Si](C)(C)C)=C2C=C(C)C3(CC3)C12C (configuration not stated)", "propertyName": "GI50", "testValue": "7.08 µM (inactive)"}
{"compound": "N#CSC1CCCCNC1=O (configuration not stated)", "propertyName": "GI50", "testValue": "23.9 µM (inactive)"}

Please examine the following record next.
Tested on HL-60, the item CC(Cc1ccc(O)cn1)(NC(=O)c1ccccc1)C(=O)O (configuration not stated) showed GI50 equal to > 100 µM (inactive)

====

System: UACC-62
protocolSummary: NCI tumour cell line growth inhibition, 48 h
Activity calls are given as the source filed them. No stated cut-off is given here; in the data, active = GI50 up to about 1.1 µM and inactive = higher.
Use one of these outcomes when replying: active, inactive

Query: recorded result category for Cc1[nH]c(-c2ccccc2)c(-c2ccc(Cl)cc2)c1C(=O)ONC(=O)c1ccccc1 in this test inactive

Query: recorded result category for NS(=O)(=O)c1ccc(Nc2c3ccccc3nc3c(C(=O)NC(CO)(CO)CO)cccc23)cc1 in this test active

Query: recorded result category for NC(=O)c1ccc(NS(=O)(=O)c2ccc(N)cc2)nc1 in this test inactive

Query: recorded result category for O=C1CCCCC2N(C(c3ccccc3)c3ccccc3)CC[C@@]12c1ccccc1.O=C1CCCC[C@H]2N(C(c3ccccc3)c3ccccc3)CC[C@@]12c1ccccc1 (stereo partly specified) in this test inactive

Query: recorded result category for CN(C)c1ccc(/C=C(\NC(=O)c2ccccc2)C(=O)Nc2cccc(C(=O)NCCCO)c2)cc1 in this test inactive

Query: recorded result category for CC(=O)NC(CCCCNC(=O)N(CCCl)N=O)C(=O)NCc1ccccc1 (stereo unspecified) in this test inactive

Query: recorded result category for CC1=NN(C(=O)c2ccccc2O)C(=O)/C1=C/c1c(O)ccc2ccccc12 in this test active

Query: recorded result category for OC1C2CCC1C1C3C=CC(C3)C21 (stereo unspecified) in this test inactive

Query: recorded result category for O=S1(=O)CCCS(=O)(=O)C(c2ccccc2)=C1c1ccccc1 in this test inactive

Query: recorded result category for COC(=O)C1=C(OC(=O)/C(=C/c2ccccc2)c2ccccc2)C(C(=O)OC)[C@@]2(O)[C@@H](C(=O)OC)[C@H](C)C[C@@H]1[C@@H]2C(=O)OC (stereo partly specified) in this test inactive

Query: recorded result category for Cc1nn(C)c2c1C(=O)N(C)CC(=O)N2C in this test inactive

Query: recorded result category for N[C@H](C(=O)O)[C@@H]1CC(Br)=NO1 in this test inactive

Query: recorded result category for CC(CNCCCNCCNCCCNCO)[N+](=O)[O-] (stereo unspecified) in this test inactive

Query: recorded result category for CN(C)CCOc1ccc2c(c1)C/C(=C/c1ncc([N+](=O)[O-])n1C)C2=O in this test inactive

Query: recorded result category for CC1(Br)C(=O)NC(=O)N([C@H]2C[C@H](O)[C@@H](CO)O2)C1N=[N+]=[N-] (stereo partly specified) in this test inactive

Query: recorded result category for CC1(C)CC23C(=O)N(c4ccccc4)C(Nc4ccccc4)=NC2=CC(C#N)=C(C#N)C3O1 (stereo unspecified) in this test inactive

Query: recorded result category for Cc1ccc(S(=O)(=O)n2c3c(c4ccccc42)CCN2C[C@H]([C@H](C)Br)CC[C@@H]32)cc1 in this test inactive

Query: recorded result category for BrC1=CC=C2NCCCCCC/N=C3\C=CC(Br)=CC=C3NCCCCCC/N=C\2C=C1 in this test inactive

Query: recorded result category for O=c1c2cc(S(=O)(=O)Nc3ccc(Cl)cc3Cl)ccc2ncn1NS(=O)(=O)c1cccc2ccccc12 in this test inactive

Query: recorded result category for O=C1CCC2c3ccccc3NCN12 (stereo unspecified) in this test inactive

Query: recorded result category for N#Cc1ccc(C2SCc3nc4ccccc4n32)cc1 (stereo unspecified) in this test inactive

====

Test system: SW-620
protocolSummary: NCI tumour cell line growth inhibition, 48 h
Activity calls are given as the source filed them. No stated cut-off is given here; in the data, active = GI50 up to about 1.1 µM and inactive = higher.
propertyName: GI50

Look over these answered cases.
{"compound": "OC(O)(C(F)(F)F)C(F)(F)F", "propertyName": "GI50", "testValue": "> 100 µM (inactive)"}
{"compound": "CC(=O)Nc1ccc(/C=N\\N2C(=O)c3ccccc3C2=O)cc1", "propertyName": "GI50", "testValue": "> 100 µM (inactive)"}

The measured GI50 associated with CC(Cc1ccc(O)cn1)(NC(=O)c1ccccc1)C(=O)O (stereo not drawn) reads > 100 µM (inactive)

The measured GI50 associated with CSc1nc(Nc2ccccc2Cl)c2c(N)nn(C)c2n1 reads > 100 µM (inactive)

The measured GI50 associated with CCCCCCCCCCCC(=O)c1c(O)cc(C)oc1=O reads 41.1 µM (inactive)

The measured GI50 associated with N#CC1=C(O)NC(O)=C(C#N)C1c1c(Cl)cccc1Cl reads 37.2 µM (inactive)

The measured GI50 associated with O=C(Nc1ccccc1F)c1cc2ccc(O)cc2o/c1=N\c1ccccc1F reads 2.88 µM (inactive)

The measured GI50 associated with COc1ccc(N2C(=O)/C(=C\c3cc(OC)c(OC)c(OC)c3)S(=O)(=O)C2c2ccccc2)cc1 (stereo not drawn) reads 48.6 µM (inactive)

====

System: A549
protocolSummary: NCI tumour cell line growth inhibition, 48 h
Activity calls are given as the source filed them. Cut-off read from the data, not from the text of the source: active = GI50 up to about 1.1 µM and inactive = higher.
Below: a set of entries, each annotated with reported GI50.

Look over these answered cases.
{"compound": "C[N+]1([O-])C2CCC1CC(OC(=O)C(CO)c1ccccc1)C2 (centres undefined)", "propertyName": "GI50", "testValue": "> 100 µM (inactive)"}
{"compound": "CCCCOC(=O)C1C2CCC(O2)C1C(=O)OCCCC (centres undefined)", "propertyName": "GI50", "testValue": "> 45.4 µM (inactive)"}

The measured GI50 associated with CC1(C)CC23C(=O)N(c4ccccc4)C(Nc4ccccc4)=NC2=CC(C#N)=C(C#N)C3O1 (centres undefined) reads 28.1 µM (inactive)

The measured GI50 associated with C/C=C/COc1cc(NC(=S)OC(C)C)ccc1Cl.C/C=C\COc1cc(NC(=S)OC(C)C)ccc1Cl reads 15.6 µM (inactive)
